- System: L1210
- experiment_summary: Inhibitory concentration to reduce the growth of L1210 cells by 50% after 70 hr.
- Type: functional, cell-based
- test_context: Mus musculus, L1210, 70 h
pIC50: −log10 of the molar value.
Rule: pIC50 of 7 or more gives Fulfilled; anything lower gives Not fulfilled.

// below: answered compounds
1. COP(=O)(Nc1ccc(Nc2c3ccccc3nc3ccccc23)cc1)OC :: Fulfilled
2. COC(=O)Nc1ccc(Nc2c3ccccc3nc3ccccc23)cc1 :: Fulfilled
3. Oc1ccc(Nc2c3ccccc3nc3ccccc23)cc1 :: Not fulfilled
4. Nc1ccc(Nc2c3ccccc3nc3ccccc23)cc1 :: Not fulfilled
5. CCNc1ccc(Nc2c3ccccc3nc3ccccc23)cc1 :: Not fulfilled

-- ask Can `CNc1ccc(Nc2c3ccccc3nc3ccccc23)cc1` be said to have pIC50 at or above 7?
-- reply Not fulfilled

-- ask Is pIC50 at least 7? Consider `CS(=O)(=O)Nc1ccc(Nc2c3ccccc3nc3ccccc23)cc1`
-- reply Fulfilled

-- ask Tell me whether pIC50 is at least 7 here: `CN(C)c1ccc(Nc2c3ccccc3nc3ccccc23)cc1`
-- reply Not fulfilled

-- ask Is reported pIC50 greater than or equal to 7 here: `O=C(Nc1ccc(Nc2c3ccccc3nc3ccccc23)cc1)c1ccccc1`
-- reply Fulfilled

-- ask Is pIC50 for `O=S(=O)(Nc1ccc(Nc2c3ccccc3nc3ccccc23)cc1)c1ccccc1` at or above 7?
-- reply Fulfilled
